Every entry's value here was drawn from patent US20060025394A1.

- Tested System: ER-α (Homo sapiens)
- Sequence (P03372 whole entry): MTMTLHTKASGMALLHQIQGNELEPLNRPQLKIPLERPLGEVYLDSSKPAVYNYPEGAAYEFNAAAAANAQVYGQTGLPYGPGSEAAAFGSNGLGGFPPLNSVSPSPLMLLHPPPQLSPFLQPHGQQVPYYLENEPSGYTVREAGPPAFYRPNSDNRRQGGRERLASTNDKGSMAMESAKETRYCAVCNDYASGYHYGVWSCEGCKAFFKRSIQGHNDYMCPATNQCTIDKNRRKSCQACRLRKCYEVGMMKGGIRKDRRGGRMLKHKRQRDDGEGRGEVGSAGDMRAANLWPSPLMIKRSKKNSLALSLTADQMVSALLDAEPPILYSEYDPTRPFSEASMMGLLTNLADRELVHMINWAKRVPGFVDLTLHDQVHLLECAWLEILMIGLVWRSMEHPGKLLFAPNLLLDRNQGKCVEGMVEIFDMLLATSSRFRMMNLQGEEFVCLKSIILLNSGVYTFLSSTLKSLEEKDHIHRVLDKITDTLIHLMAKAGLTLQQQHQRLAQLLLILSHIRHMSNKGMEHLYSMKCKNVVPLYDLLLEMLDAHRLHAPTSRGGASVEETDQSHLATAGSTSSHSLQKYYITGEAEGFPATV
- Assay Summary: Estrogen receptor relative binding affinity assay, fluorescence polarization, ER-α
- Experimental Setup: fluorescence polarization, 25° C., 2 hours
pEC50: −log10 of the molar value.

{"Smiles Data": "C[C@]12CC[C@@H]3c4ccc(O)cc4CC[C@H]3[C@@H]1CC[C@@]2(O)/C=C\\c1ccc(N)cc1", "pEC50": 6.44}

====

- System: DU145
- Assay Summary: MTS cell viability assay in DU145
- Format: cell-based
- Experimental Setup: Homo sapiens, DU-145, 120 h, read-out: EC50 (cell death, MTS)

{"Smiles Data": "C[C@]12CC[C@@H]3c4ccc(O)cc4CC[C@H]3[C@@H]1CC[C@@]2(O)/C=C\\c1ccc(N)cc1", "Units Text": "nM", "EC50": 16}
